Ref: patent US6534447B1

Test system: Setaria viridis (SETVI, green foxtail)
Assay: Post-emergence herbicidal evaluation
Format: in vivo
Details: rate 0.100 kg/ha, 3 weeks after treatment
attribute measured: SETVI rating

INSERT INTO assay_data (compound, assay_value) VALUES
  ('Cc1cc(OCCCSC(F)(F)F)nc(Oc2ccnc(C(F)(F)F)c2)c1', '9 (9 - Complete kill)'),
  ('Cc1cc(OCCSC(F)(F)F)nc(Oc2ccnc(C(F)(F)F)c2)c1', '9 (9 - Complete kill)'),
  ('Cc1cc(OCCC(Cl)SC(F)(F)F)nc(Oc2cc(C(F)(F)F)nn2C)c1 (stereo not shown)', '9 (9 - Complete kill)'),
  ('Cc1cc(OCC=CSC(F)(F)F)nc(Oc2cc(C(F)(F)F)nn2C)c1', '8 (8 - Approaching complete kill)'),
  ('Cc1cc(OCC=C(Cl)SC(F)(F)F)nc(Oc2cc(C(F)(F)F)nn2C)c1', '9 (9 - Complete kill)'),
  ('Cc1cc(OCCCSC(F)(F)F)nc(Oc2cc(C(F)(F)F)nn2C)c1', '7 (7 - Good herbicidal effect)'),
  ('Cc1cc(OCCSC(F)(F)F)nc(Oc2cc(C(F)(F)F)nn2C)c1', '8 (8 - Approaching complete kill)');

* * *

Tested on: Galium aparine (GALAP, cleaver)
Experiment: Post-emergence herbicidal evaluation
Type: in vivo
Conditions: rate 0.400 kg/ha, 3 weeks after treatment
attribute measured: GALAP rating

INSERT INTO results (compound, attribute_measured, assay_value) VALUES
  ('Cc1cc(OCCSC(F)(F)F)nc(Oc2ccnc(C(F)(F)F)c2)c1 [Example 51]', 'GALAP rating', '9 (9 - Complete kill)'),
  ('Cc1cc(OCC=C(Cl)SC(F)(F)F)nc(Oc2cc(C(F)(F)F)nn2C)c1 [Example 5]', 'GALAP rating', '8 (8 - Approaching complete kill)'),
  ('Cc1cc(OCCCSC(F)(F)F)nc(Oc2cc(C(F)(F)F)nn2C)c1 [Example 4]', 'GALAP rating', '9 (9 - Complete kill)'),
  ('Cc1cc(OCCCSC(F)(F)F)nc(Oc2ccnc(C(F)(F)F)c2)c1 [Example 53]', 'GALAP rating', '9 (9 - Complete kill)'),
  ('Cc1cc(OCCC(Cl)SC(F)(F)F)nc(Oc2cc(C(F)(F)F)nn2C)c1 (stereo not shown) [Example 3]', 'GALAP rating', '8 (8 - Approaching complete kill)'),
  ('Cc1cc(OCCSC(F)(F)F)nc(Oc2cc(C(F)(F)F)nn2C)c1 [Example 1]', 'GALAP rating', '8 (8 - Approaching complete kill)'),
  ('Cc1cc(OCC=CSC(F)(F)F)nc(Oc2cc(C(F)(F)F)nn2C)c1 [Example 2]', 'GALAP rating', '7 (7 - Good herbicidal effect)');

* * *

GALAP rating: recorded values
System: Galium aparine (GALAP, cleaver)
Experiment: Pre-emergence herbicidal evaluation
Type: in vivo
Conditions: rate 0.025 kg/ha, 3 weeks after treatment
attribute measured: GALAP rating

INSERT INTO results (compound, attribute_measured, assay_value) VALUES
  ('Cc1cc(OCCSC(F)(F)F)nc(Oc2cc(C(F)(F)F)nn2C)c1 [Example 1]', 'GALAP rating', '6 (6 - Herbicidal effect)'),
  ('Cc1cc(OCCC(Cl)SC(F)(F)F)nc(Oc2cc(C(F)(F)F)nn2C)c1 (stereo not shown) [Example 3]', 'GALAP rating', '2 (2 - Slight effect)'),
  ('Cc1cc(OCCSC(F)(F)F)nc(Oc2ccnc(C(F)(F)F)c2)c1 [Example 51]', 'GALAP rating', '8 (8 - Approaching complete kill)'),
  ('Cc1cc(OCCCSC(F)(F)F)nc(Oc2cc(C(F)(F)F)nn2C)c1 [Example 4]', 'GALAP rating', '4 (4 - Injury)'),
  ('Cc1cc(OCCCSC(F)(F)F)nc(Oc2ccnc(C(F)(F)F)c2)c1 [Example 53]', 'GALAP rating', '4 (4 - Injury)'),
  ('Cc1cc(OCC=C(Cl)SC(F)(F)F)nc(Oc2cc(C(F)(F)F)nn2C)c1 [Example 5]', 'GALAP rating', '5 (5 - Definite injury)'),
  ('Cc1cc(OCC=CSC(F)(F)F)nc(Oc2cc(C(F)(F)F)nn2C)c1 [Example 2]', 'GALAP rating', '7 (7 - Good herbicidal effect)');
